All figures here come from patent US7736624B2.

# MEASURED TARGET: COX-2 (Homo sapiens, UniProt P35354)
# Sequence (P35354 18-604): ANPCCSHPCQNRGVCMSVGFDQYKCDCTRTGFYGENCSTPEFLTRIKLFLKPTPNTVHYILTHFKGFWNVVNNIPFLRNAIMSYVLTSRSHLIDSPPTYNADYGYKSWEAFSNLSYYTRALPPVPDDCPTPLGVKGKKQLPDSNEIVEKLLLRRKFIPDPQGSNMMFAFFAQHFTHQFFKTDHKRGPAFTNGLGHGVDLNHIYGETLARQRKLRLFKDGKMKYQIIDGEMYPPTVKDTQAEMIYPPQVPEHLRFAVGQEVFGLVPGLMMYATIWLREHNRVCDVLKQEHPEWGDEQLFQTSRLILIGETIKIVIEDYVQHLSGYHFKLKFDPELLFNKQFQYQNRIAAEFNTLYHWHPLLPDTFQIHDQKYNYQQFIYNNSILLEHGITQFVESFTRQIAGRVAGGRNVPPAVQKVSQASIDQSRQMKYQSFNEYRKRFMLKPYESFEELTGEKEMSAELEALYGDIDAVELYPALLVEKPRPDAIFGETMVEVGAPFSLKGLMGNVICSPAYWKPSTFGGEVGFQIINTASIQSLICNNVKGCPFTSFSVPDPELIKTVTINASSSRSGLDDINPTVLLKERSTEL
# TEST DESCRIPTION: IC50 determinations using purified enzymes (TLC assay), COX-2
# Type: biochemical
# Design: made in house; host or cells: Sf9 insect cells
# MEASUREMENT CONDITIONS: Table 3; assayed against purified enzymes; read-out: IC50 COX-2
ENDPOINT NAME: IC50 (nM)

COMPOUND	IC50 (nM)
CCN1C(=CC=CC=CC2=[N+](CCCCS(=O)(=O)[O-])c3ccc4ccccc4c3C2(C)C)C(C)(C)c2cc(CC(=O)NCCCCNC(=O)Cc3c(C)n(C(=O)c4ccc(Cl)cc4)c4ccc(OC)cc34)ccc21	500

I. COc1ccc2c(c1)c(CC(=O)NCCCNC(=O)c1cc3ccccc3oc1=O)c(C)n2C(=O)c1ccc(Cl)cc1 [Compound 27ee]
II. COc1ccc2c(c1)c(CC(=O)NCCCCNC(=O)c1ccc(C(=O)[O-])c(C3=c4cc5c6c(c4Oc4c3cc3c7c4CCCN7CCC3)CCC[N+]=6CCC5)c1)c(C)n2C(=O)c1ccc(Cl)cc1 [Compound 27vv]
Looking at I and II , which one comes out lower in IC50 terms? Use the label to indicate which entry you chose.
I
(I: 600 nM, II: 3500 nM)
